Just for reference, the supplement of paper PMC7125110 is where these values come from.

B1: glmS ribozyme (parent)
chain: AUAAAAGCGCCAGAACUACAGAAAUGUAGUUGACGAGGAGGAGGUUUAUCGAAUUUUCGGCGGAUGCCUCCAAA

Variants of: B1
testProtocol: self-cleavage kobs at 160 uM GlcN6P; higher = faster cleavage; RNA array
particulars: with glucosamine-6-phosphate
Variants at the floor of the assay were thinned out.

- recordSequence: "AUAAAAGCGCCAGAACUACAGAAAUGUAGUUGACGGGGAGGAGGUUUAUCGAAUUUUCGGCGGAUGCCGCCAAA"
  self-cleavage kobs at 160 uM GlcN6P: "3.18e-05 s⁻¹"
- recordSequence: "AUAAAAGCGCCAGAACUACAGAAAUGUAGUUGACGAGGGGGAGGUUUAUCGAAUUUUCGGCGGGUGCCUCCAAA"
  self-cleavage kobs at 160 uM GlcN6P: "0.00322 s⁻¹"
- recordSequence: "AUAAAAGCGCCAGAACUACAGAAAUGUACUUGACGAGGAGGAGGUUUAUCGAGUUUUCGGCGGAUGCCUCCAAA"
  self-cleavage kobs at 160 uM GlcN6P: "0.000154 s⁻¹"
- recordSequence: "AUAAAAGCGCGAGCACUACAGAAAUGUAGUGGUCGAGGAGGAGGUUUAUCGAAUUUUCGGCGGAUGCCUCCAAA"
  self-cleavage kobs at 160 uM GlcN6P: "< 1e-05 s⁻¹"
- recordSequence: "AUAAAAGCUCCAGAACUACAGAAAUGUAGUUGACGAGGAGGAGGUUUAUCGAAUUUUCGGCGGAUGCUUUCAAA"
  self-cleavage kobs at 160 uM GlcN6P: "< 1e-05 s⁻¹"
- recordSequence: "AUAAAAGCGCCAGAACUACAGAAAUGUAGUUGACGAAGAAGAGGUUUAUCGAAUUUUCGGCGGAUGCCUCCAAA"
  self-cleavage kobs at 160 uM GlcN6P: "3.73e-05 s⁻¹"
- recordSequence: "AUAAAAGCGCCAGAACUACAGAAAUGUAGUUGACGAGGAGGUGGUUUAUCGAAUUUUCGGCGGAUGCAUCCAAA"
  self-cleavage kobs at 160 uM GlcN6P: "< 1e-05 s⁻¹"
- recordSequence: "AUAAAAGCGCCAUAACUACAGAAAUGUAGUUGACGAGGAGGAGGUUUAUCGAAUUGUCGGCGGAUGCCUCCAAA"
  self-cleavage kobs at 160 uM GlcN6P: "7.12e-05 s⁻¹"
- recordSequence: "AUAAAAACUCCAGAACUACAGAAAUGUAGUUGACGAGGAGGAGGUUUAUUGAAUUUUCGGCGGAUGCCUCCAAA"
  self-cleavage kobs at 160 uM GlcN6P: "< 1e-05 s⁻¹"
- recordSequence: "AUAAAAGCGCCGGAACUACAGAAAUGUAGUUAUCGAGGAGGAGGUUUAUCGAAUUUUCGGCGGAUGCCUGCAAA"
  self-cleavage kobs at 160 uM GlcN6P: "< 1e-05 s⁻¹"
- recordSequence: "AUAAAAGCGCCAGAACUACAGAAAUGUAGUUGACCAGCAGGAGGUUUAUCGAAUUUUAGGCGGAUGCCUCCAAA"
  self-cleavage kobs at 160 uM GlcN6P: "< 1e-05 s⁻¹"
- recordSequence: "AUAAAAGCGCCAGAACUACAGAAAUGUAGUAGACGUGGAGGAGGUUUAUCGAAUUUUCGGCGGAUGCCUCCAAA"
  self-cleavage kobs at 160 uM GlcN6P: "< 1e-05 s⁻¹"
- recordSequence: "AUAAAAGCGCCAGAACUACAGAAAUGUAAUUGACGAGGAGGAGGUUUAUCGAUUUUUCGGCGGAUGCCUCCAAA"
  self-cleavage kobs at 160 uM GlcN6P: "0.000233 s⁻¹"
- recordSequence: "AUAAAAGCGCCAGAACUACAGAAAUGUAGUUGACGAGGAGGAAGUUUAUCAAAUUUUCGGCGGAUGCCUCCAAA"
  self-cleavage kobs at 160 uM GlcN6P: "< 1e-05 s⁻¹"
- recordSequence: "AUAAAAGCGCCAGAAGUACAGAAAUGUAGUUGACGAGGAGGGGGUUUAUCGAAUUUUCGCCGGAUGCCUUCAAA"
  self-cleavage kobs at 160 uM GlcN6P: "< 1e-05 s⁻¹"
- recordSequence: "AUAAAAGCGCCGGAACUACAGAAAUGUAGUUGACGAGGAUGAGGUUUAUCGAAUUUUCGGCAGAUGCCUCCAAA"
  self-cleavage kobs at 160 uM GlcN6P: "< 1e-05 s⁻¹"
- recordSequence: "AUAAAAGCGCCAGAACUACAGAAAUGUAGUUGACGAGGAGGGGGUUUAGCGAAUUUUCGGCGGAUGCCUCCAAA"
  self-cleavage kobs at 160 uM GlcN6P: "5.71e-05 s⁻¹"
- recordSequence: "AUAAAAUCGCCAGAGCUACAGAAAUGUAGUUGACGAGGAGGAGGUUUAUCGAAUUUUCGGCGGAUGCCUCCAAA"
  self-cleavage kobs at 160 uM GlcN6P: "< 1e-05 s⁻¹"
- recordSequence: "AUAAAGGCGCUAGAAAUACAGAAAUGUAGUUGACGAGGAGGAGGUUUAUCGAAUUUUCGGCGGGUGCCUCCAAA"
  self-cleavage kobs at 160 uM GlcN6P: "< 1e-05 s⁻¹"
- recordSequence: "AUAAAAGCGCCAGAGCUACAGAAAUGUAGUUGACGAGGAGGAGGUUCAUCGAAUUUUCGGCGGAUGCCUCCAAA"
  self-cleavage kobs at 160 uM GlcN6P: "0.000348 s⁻¹"
- recordSequence: "AUAAAAGAGCCAGAACUACAGAAAUGUAGUUGCCUAGGAGGAGGUUUAUCGAAUUUUCGGCGUAUGCCUCCAAA"
  self-cleavage kobs at 160 uM GlcN6P: "< 1e-05 s⁻¹"
- recordSequence: "AUAAAAGCGCCAGAACUACAGAAAUGUAGUUGACGAGGAGGAGUUUUAUCGAAUUUUCGCCGGAUGCCUCCAAA"
  self-cleavage kobs at 160 uM GlcN6P: "< 1e-05 s⁻¹"
- recordSequence: "AUAAAAGUGCCAGAACUACAGAAAUGUAGUUGACGAGGAGGUGGUUUAUCGAAUUUUCGGCGGCUGCCCCCAAA"
  self-cleavage kobs at 160 uM GlcN6P: "< 1e-05 s⁻¹"
- recordSequence: "AUAAAAGCUCCAGAACUACAGAAAUGUAGUUGACGAGGAAGAGGUUUAUCGAAUUUUCGGCGGAUGCCUCCAAA"
  self-cleavage kobs at 160 uM GlcN6P: "< 1e-05 s⁻¹"
- recordSequence: "AUAAAAGCGCCAGAACUACAGAAAUGUAGAUGACGAGGAGGAGAUUUAUCGAAUUUUCGGCGGAUGCCUCCAAA"
  self-cleavage kobs at 160 uM GlcN6P: "< 1e-05 s⁻¹"
- recordSequence: "AUAAAAGCGCCAGAACUACAGAAAUGUAGUUGACGAGGAGGAGGCUUAUCGAUUUUUCGGCGGAUGCCUCCAAA"
  self-cleavage kobs at 160 uM GlcN6P: "0.000117 s⁻¹"
- recordSequence: "AUAAAAGCGCCAGAACUACAGAAAUGUAGUUGACGAGGAGGAGGUUUAUCGAAAAUUCGGCGGAUGCCUCCAAA"
  self-cleavage kobs at 160 uM GlcN6P: "0.00297 s⁻¹"
- recordSequence: "AUAAAAGCACCAGAACUACAGAAAUGUAUUUGACGCGGAGGAGGUUUAUCGAAUUUUCGGCGGAUGCCUCCAAA"
  self-cleavage kobs at 160 uM GlcN6P: "< 1e-05 s⁻¹"
- recordSequence: "AUAAAAGCGCCAGAACUACAGAAAUGUAGUUGACGAGGAGGAGGUUUAUCGAAUGUUCGGCGGAUGCCUGCAAA"
  self-cleavage kobs at 160 uM GlcN6P: "7.54e-05 s⁻¹"
- recordSequence: "AUAAAAGCGCCGGAACUACAGAAAUGUAGUUGACGAGGAGGAGGUCUUUCGAAUUUUCGGCGGAUGCCUCCAAA"
  self-cleavage kobs at 160 uM GlcN6P: "< 1e-05 s⁻¹"
- recordSequence: "AUAAAAGCGCCAGAACUACAGAAAUGUAGUCGACGAGGAGGAGGUUUAUCGAAUUUUCGGCGGAUGCCUCCAAA"
  self-cleavage kobs at 160 uM GlcN6P: "0.000489 s⁻¹"
- recordSequence: "AUAAAAGCUCCAGAACUACAGAAAUGUACCUGACGAGGAGGAGGUUUAUCGAAUUUUCGGCGGAUGCCUCCAAA"
  self-cleavage kobs at 160 uM GlcN6P: "< 1e-05 s⁻¹"
- recordSequence: "AUAAAAGCGCCAGAACUACAGAAAUGUAGUUGACGAGGAAGAGGUUUAUCGAAUUUUCGGCGGAUGCCUCGAAA"
  self-cleavage kobs at 160 uM GlcN6P: "0.00034 s⁻¹"
- recordSequence: "AUAAAAGAGACAGAACUACAGAAAUGUAGUUGACGAGAAGGAGGUUUAUGGAAUUUUCGGCGGAUGCCUCCAAA"
  self-cleavage kobs at 160 uM GlcN6P: "8.75e-05 s⁻¹"
- recordSequence: "AUAAAAGCGCCAGAACUACAGAAAUGUAGUUGACGAGGAGGAGGUUUAUCGAAUUUUCGGCGGAUGCCUGUAAA"
  self-cleavage kobs at 160 uM GlcN6P: "5.07e-05 s⁻¹"
- recordSequence: "AUAAAAGCGCCAGAACUACAGAAAUGUAGUUGACGAGGAGGUGGUUUAUCGAAUUUUAGGCGGAUGCCUCCAAA"
  self-cleavage kobs at 160 uM GlcN6P: "< 1e-05 s⁻¹"
- recordSequence: "AUAAAAGCGCCAGACCUACAGAAAUGUAGUUGACGAGGAGGAGGUUUCUCGAAUUUUCGGCGGAUGCCUCCAAA"
  self-cleavage kobs at 160 uM GlcN6P: "< 1e-05 s⁻¹"
- recordSequence: "AUAAAAGCGCCAGAACUACAGAAAUGUAGUUGGCGAGGAGGAGGUUUAUCGAAUUUUCGGGGGAUGCCUCCAAA"
  self-cleavage kobs at 160 uM GlcN6P: "< 1e-05 s⁻¹"
- recordSequence: "AUAAAAUCGCCAGAACUACAGAAAUGUAGUUGACGAGGAGGAGGUUUAUCGAAUUUUCGGCGGAUGCCUCUAAA"
  self-cleavage kobs at 160 uM GlcN6P: "< 1e-05 s⁻¹"
- recordSequence: "AUAAAAGCGCCAGAACUACAGAAAUGUAGUAGACGAGGAGGAGGUUUAUCGAAUUUUCCGCGGAUGCCUCCAAA"
  self-cleavage kobs at 160 uM GlcN6P: "< 1e-05 s⁻¹"
- recordSequence: "AUAAAAGCGCCAGAACUACAGAAAUGUAGUUGACGAGGCGGAGGUUUAUCGAAUUGUCGGCGGAUGCCUCCAAA"
  self-cleavage kobs at 160 uM GlcN6P: "0.000133 s⁻¹"
- recordSequence: "AUAAAAGUGCCAGAACUACAGAAAUGUAGUUGACGAGGAGGAGGUUUAUCCAAUUUUCGGCGGAUGCCUCCAAA"
  self-cleavage kobs at 160 uM GlcN6P: "< 1e-05 s⁻¹"
- recordSequence: "AUAAAAGCGCCAGAACUACAGAAAUGUAGUUGACGAGGAGAAGGUUUAUCGAAUUUUCGGCGGAUGCCUCUAAA"
  self-cleavage kobs at 160 uM GlcN6P: "5.5e-05 s⁻¹"
- recordSequence: "AUAAAAGCGCCAGAACUACAGAAAUGUAGUUGACGAUGAGAAGGUUUAUCGAAUUUUCGGCGGAUGCCUCCAAA"
  self-cleavage kobs at 160 uM GlcN6P: "< 1e-05 s⁻¹"
- recordSequence: "AUAAAACCGCCAGAUCUACAGAAAUGUAGUUGACGAGGAGGAGGUUUAUCGAAUUUUCCGCGGAUGCCUCCAAA"
  self-cleavage kobs at 160 uM GlcN6P: "< 1e-05 s⁻¹"
- recordSequence: "AUAAAAGCGCCAGAACUACAGAAAUGUAGUUGACGAGGUGGGGGUUUAUCGAAUUUUCGUCGGAUGCCUCCAAA"
  self-cleavage kobs at 160 uM GlcN6P: "< 1e-05 s⁻¹"
